Origin of the recorded values: patent US12037344B2

System: THP-1 cells
Protocol Description: Measurement of IL-1β production, hTRF protocol (second alternative procedure), THP-1 cells
Assay type: cell-based, human
Experimental Setup: Homo sapiens, THP-1, IL-1β production, human; read-out: NLRP3 hILIB EC50
pEC50: −log10 of the molar value.
Let's look at some compounds and their measured pEC50.

[
  {
    "Compound": "Nc1nc2cc(-c3ccn[nH]3)ccc2c2[nH]c(CC3CCCO3)cc12 (stereo not shown)",
    "pEC50": 6.51
  },
  {
    "Compound": "CC(C)(Cn1cc2c(N)nc3cc(-c4ccn[nH]4)ccc3c2n1)NC(=O)C1CCCO1 (stereo not shown)",
    "pEC50": 6.12
  },
  {
    "Compound": "Nc1nc2cc(-c3cc[nH]n3)ccc2c2cn(CCNC(=O)c3cccc(C(F)(F)F)n3)nc12",
    "pEC50": 7.10
  },
  {
    "Compound": "CC1(O)CCCC1n1cc2c(N)nc3cc(-c4cc[nH]n4)ccc3c2n1 (single isomer, unassigned) [Example 344]",
    "pEC50": 5.99
  }
]
